So I've got a bunch of sequences here, and I need their apparent KD of MS2 coat protein values.
Test system: MS2 coat protein
Test: apparent KD of MS2 coat protein; higher = weaker reporter binding
Settings: Eterna round: R107; input ligand: none
Please state the figure in nM; there is no need to write the unit.

Per the record, UCGCUCUGGGUGAAUCCCAGAGAUAUGGAAGGAGCGGACGAAAGUCCAGGUAGGUCGCCAUCGAACAUGAGGAUCACCCAUGUAC [Same State - Arginine A (Freestyle 27)] has apparent KD of MS2 coat protein of 47.6

The reported apparent KD of MS2 coat protein of the sequence ACAUGAGGAUCACCCAUGUAGCCUAGGGAAGGAGCGGCAUAAAAGCCAGGUAGGUCGCCCGCAUGAGGAUCACCCAUGUCAAGGA [Same State Arginine A GF7] was 70

apparent KD of MS2 coat protein reported for this sequence AUUAAUUUAUUUCUCAAUUUAAUUUCAGAAGGAGCGUGAUGUUUCACAGGUAGGUCGCUGUUUACAUGAGGAUCACCCAUGUUUU [JR_SSArginiA_Sub004] : 40.2

Sample AAGCGCACAUGAGGAUCACCCAUGUGCGGCCGAGGACCGGUACGGCCGCCACUCGGAACUAGAAAUAGGAACGGGUAGUGCGCAA [TryptophanA Sol_1] ; apparent KD of MS2 coat protein observed: 11.7

Field apparent KD of MS2 coat protein (entry AAAUCAGUCUGAAGGAGCGUCACAUGAGGAUCACCCAUGUACAUGAGGAUCACCCAUGUGUGACAGGUAGGUCGCAGAGGAUACC [Exclusion Arginine B GF 4] ) reads 169

Form: sequence = ACAUGAGGAUCACCCAUGUAAGGUCUUGAUACCAGACGCGAAGUAGUCCCUUGGCAGCAAAUACGUGAGGGUCGCACAUGUGUAA [mcnmullin] ; apparent KD of MS2 coat protein = 33.1

###

System: MS2 coat protein
Assay: apparent KD of MS2 coat protein; higher = weaker reporter binding
Settings: Eterna round: R107; input ligand: tryptophan 2.4 mM
attribute_measured: apparent KD of MS2 coat protein (nM)
Quick reminder: number only, in nM, skip the unit.

Short answer for GCUGUGAAGUCGGCCGCCACUGGUUAGUUUAACCUCAUGUAACAUGAGGAUCACCCAUGUAAUGUCAGGACCGGGACAACAGCAA [JR_ExcTryptoB_Sub016] : apparent KD of MS2 coat protein was 357

Record "AAUAUCAUGAGGAUCACCCAUGAAGAAGAUACCAGAGUGAUGAUCCUCCCUUGGCAGCUUAACGCUGAUUGAUUACAAUCAGCGA" , field apparent KD of MS2 coat protein: 30.3

The recorded apparent KD of MS2 coat protein for AGUCUUAAUGGAAGGAGCGCAGUCAUAACAUGAGGAUCACCCAUGUCGAGGUGAGGGUCAUUGCAGGUAGGUCGCCAUACUAAGA [Same State - Arginine B (Freestyle 3)] is 245

Lookup result for GAUCCACAUGAGGAUCACCCAUGUGAGGAUACCAGUACCAGAUCCUACCCUUGGCAGCCUAACCUUCAUUCAACACGAAUAAGAA [theeternabot_sameState_MS2_Theo_A_20] ; measured apparent KD of MS2 coat protein: 15

Sample GCUAGGUCUACGGCCGCCACUAGACGUGGGUUAAACAUGAGGAUCACCCAUGUGCUACAGGCGCAUAGGACCGGGUAGACCUAGC [SSTB NP+V+V2 #9 +-Same Structure] ; apparent KD of MS2 coat protein observed: 63.7

The reported apparent KD of MS2 coat protein of the sequence GCUAUGGCUGGAAGGAGCGUGAAUUUCAGCGAACAUGAGGAUCACCCAUGUAAGGAUAUGGCACAGGUAGGUCGCUAGCCAUAGC [#19 Same State - Arginine B] was 13.4
